- TEST_SYSTEM: NSD3/WHSC1L1 (Homo sapiens, UniProt Q9BZ95)
- Construct: Eurofins Cerep (contract laboratory)
- Sequence (Q9BZ95 whole entry): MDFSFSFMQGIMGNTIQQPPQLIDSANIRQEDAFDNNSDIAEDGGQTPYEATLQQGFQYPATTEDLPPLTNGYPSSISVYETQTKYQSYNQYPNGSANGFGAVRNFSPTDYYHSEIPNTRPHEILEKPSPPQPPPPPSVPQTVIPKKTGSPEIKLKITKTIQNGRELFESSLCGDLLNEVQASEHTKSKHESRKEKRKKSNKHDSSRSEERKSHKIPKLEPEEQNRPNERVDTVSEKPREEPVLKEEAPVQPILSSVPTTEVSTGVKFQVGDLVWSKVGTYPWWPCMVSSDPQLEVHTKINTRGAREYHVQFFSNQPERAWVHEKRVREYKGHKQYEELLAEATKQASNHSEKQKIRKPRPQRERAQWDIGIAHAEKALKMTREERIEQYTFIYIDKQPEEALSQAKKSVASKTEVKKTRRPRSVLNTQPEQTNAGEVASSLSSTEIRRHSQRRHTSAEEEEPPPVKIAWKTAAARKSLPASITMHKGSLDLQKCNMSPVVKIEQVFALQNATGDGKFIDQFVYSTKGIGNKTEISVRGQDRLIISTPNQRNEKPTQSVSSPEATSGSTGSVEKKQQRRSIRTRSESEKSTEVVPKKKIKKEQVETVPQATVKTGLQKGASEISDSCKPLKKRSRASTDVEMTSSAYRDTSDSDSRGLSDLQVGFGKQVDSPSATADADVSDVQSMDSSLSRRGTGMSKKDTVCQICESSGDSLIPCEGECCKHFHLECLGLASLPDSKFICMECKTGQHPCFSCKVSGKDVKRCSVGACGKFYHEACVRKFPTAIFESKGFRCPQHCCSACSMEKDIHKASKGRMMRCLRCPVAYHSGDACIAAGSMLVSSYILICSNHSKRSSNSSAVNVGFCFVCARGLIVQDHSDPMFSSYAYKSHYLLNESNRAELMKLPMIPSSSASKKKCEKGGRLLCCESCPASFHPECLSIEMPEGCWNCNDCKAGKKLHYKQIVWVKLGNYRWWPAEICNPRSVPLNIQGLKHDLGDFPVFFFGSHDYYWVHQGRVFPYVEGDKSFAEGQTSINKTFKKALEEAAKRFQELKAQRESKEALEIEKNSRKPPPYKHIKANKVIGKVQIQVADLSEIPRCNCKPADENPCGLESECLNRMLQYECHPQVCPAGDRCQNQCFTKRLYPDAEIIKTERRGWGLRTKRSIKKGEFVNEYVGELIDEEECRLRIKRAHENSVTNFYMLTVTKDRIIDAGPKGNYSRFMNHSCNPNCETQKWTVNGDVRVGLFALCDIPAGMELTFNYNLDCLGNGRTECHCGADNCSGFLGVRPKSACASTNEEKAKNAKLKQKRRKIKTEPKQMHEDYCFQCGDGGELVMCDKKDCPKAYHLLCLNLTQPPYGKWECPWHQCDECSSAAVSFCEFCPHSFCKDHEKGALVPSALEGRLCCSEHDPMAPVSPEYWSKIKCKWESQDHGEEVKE
- ASSAY_EXPLANATION: In vitro selectivity of methyltransferases
- REPORTED_CONDITIONS: NSD3/WHSC1L1, H3K36
pIC50: −log10 of the molar value.
REPORTED_PROPERTY: pIC50

Respond only with pIC50 recorded for `CCc1c(N(CC)C2CCOCC2)cc2oc(CN3CCCCC3)cc2c1C(=O)NCc1c(C)cc(C)[nH]c1=O`
< 4.00

* * *

- TEST_SYSTEM: SMYD2 (Homo sapiens, UniProt Q9NRG4)
- Sequence (Q9NRG4 whole entry): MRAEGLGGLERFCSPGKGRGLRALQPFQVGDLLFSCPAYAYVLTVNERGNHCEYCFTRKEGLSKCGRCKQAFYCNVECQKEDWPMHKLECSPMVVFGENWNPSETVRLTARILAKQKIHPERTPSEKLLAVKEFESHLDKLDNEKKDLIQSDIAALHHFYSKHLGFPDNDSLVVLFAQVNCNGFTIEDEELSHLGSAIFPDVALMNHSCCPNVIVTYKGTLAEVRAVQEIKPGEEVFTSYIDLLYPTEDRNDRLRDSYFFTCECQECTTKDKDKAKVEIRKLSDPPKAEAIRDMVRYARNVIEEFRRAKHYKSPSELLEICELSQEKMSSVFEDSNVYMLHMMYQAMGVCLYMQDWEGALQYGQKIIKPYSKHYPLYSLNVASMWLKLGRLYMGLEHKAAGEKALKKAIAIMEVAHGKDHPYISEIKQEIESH
REPORTED_PROPERTY: IC50

Respond only with IC50 recorded for CCc1c(N(CC)C2CCOCC2)cc2oc(CN3CCCCC3)cc2c1C(=O)NCc1c(C)cc(C)[nH]c1=O [SHR2554]
> 100 µM

* * *

- TEST_SYSTEM: PRDM9 (Homo sapiens, UniProt Q9NQV7)
- Construct: Eurofins Cerep (contract laboratory)
- Sequence (Q9NQV7 whole entry): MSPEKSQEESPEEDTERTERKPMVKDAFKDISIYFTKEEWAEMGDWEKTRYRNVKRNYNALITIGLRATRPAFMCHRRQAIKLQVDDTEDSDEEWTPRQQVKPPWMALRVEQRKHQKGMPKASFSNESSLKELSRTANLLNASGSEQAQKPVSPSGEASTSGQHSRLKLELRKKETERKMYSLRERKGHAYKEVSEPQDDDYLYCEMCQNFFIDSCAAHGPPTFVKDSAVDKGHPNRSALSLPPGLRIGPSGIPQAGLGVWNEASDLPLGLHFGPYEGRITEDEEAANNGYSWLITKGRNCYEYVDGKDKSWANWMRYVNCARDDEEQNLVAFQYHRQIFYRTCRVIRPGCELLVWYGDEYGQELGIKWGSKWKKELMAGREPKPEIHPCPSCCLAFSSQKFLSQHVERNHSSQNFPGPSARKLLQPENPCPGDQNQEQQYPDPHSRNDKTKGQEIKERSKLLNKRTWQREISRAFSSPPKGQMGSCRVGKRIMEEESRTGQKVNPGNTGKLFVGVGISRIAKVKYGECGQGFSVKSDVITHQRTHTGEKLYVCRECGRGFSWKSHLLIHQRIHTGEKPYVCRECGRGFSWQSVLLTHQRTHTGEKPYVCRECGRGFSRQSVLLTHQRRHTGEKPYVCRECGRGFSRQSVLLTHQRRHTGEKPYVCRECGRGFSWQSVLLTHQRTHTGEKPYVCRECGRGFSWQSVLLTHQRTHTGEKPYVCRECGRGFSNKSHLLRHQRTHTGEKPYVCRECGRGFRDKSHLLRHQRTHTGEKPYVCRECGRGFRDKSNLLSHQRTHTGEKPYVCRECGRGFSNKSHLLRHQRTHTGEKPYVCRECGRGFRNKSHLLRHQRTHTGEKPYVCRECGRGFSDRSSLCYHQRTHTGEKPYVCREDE
- ASSAY_EXPLANATION: In vitro selectivity of methyltransferases
- Type: biochemical
- REPORTED_CONDITIONS: PRDM9, H3K4/H3K36
pIC50: −log10 of the molar value.
REPORTED_PROPERTY: pIC50

Respond only with pIC50 recorded for `CCc1c(N(CC)C2CCOCC2)cc2oc(CN3CCCCC3)cc2c1C(=O)NCc1c(C)cc(C)[nH]c1=O`
< 4.00

* * *

- TEST_SYSTEM: DOT1L (Homo sapiens)
- Sequence (Q8TEK3 whole entry): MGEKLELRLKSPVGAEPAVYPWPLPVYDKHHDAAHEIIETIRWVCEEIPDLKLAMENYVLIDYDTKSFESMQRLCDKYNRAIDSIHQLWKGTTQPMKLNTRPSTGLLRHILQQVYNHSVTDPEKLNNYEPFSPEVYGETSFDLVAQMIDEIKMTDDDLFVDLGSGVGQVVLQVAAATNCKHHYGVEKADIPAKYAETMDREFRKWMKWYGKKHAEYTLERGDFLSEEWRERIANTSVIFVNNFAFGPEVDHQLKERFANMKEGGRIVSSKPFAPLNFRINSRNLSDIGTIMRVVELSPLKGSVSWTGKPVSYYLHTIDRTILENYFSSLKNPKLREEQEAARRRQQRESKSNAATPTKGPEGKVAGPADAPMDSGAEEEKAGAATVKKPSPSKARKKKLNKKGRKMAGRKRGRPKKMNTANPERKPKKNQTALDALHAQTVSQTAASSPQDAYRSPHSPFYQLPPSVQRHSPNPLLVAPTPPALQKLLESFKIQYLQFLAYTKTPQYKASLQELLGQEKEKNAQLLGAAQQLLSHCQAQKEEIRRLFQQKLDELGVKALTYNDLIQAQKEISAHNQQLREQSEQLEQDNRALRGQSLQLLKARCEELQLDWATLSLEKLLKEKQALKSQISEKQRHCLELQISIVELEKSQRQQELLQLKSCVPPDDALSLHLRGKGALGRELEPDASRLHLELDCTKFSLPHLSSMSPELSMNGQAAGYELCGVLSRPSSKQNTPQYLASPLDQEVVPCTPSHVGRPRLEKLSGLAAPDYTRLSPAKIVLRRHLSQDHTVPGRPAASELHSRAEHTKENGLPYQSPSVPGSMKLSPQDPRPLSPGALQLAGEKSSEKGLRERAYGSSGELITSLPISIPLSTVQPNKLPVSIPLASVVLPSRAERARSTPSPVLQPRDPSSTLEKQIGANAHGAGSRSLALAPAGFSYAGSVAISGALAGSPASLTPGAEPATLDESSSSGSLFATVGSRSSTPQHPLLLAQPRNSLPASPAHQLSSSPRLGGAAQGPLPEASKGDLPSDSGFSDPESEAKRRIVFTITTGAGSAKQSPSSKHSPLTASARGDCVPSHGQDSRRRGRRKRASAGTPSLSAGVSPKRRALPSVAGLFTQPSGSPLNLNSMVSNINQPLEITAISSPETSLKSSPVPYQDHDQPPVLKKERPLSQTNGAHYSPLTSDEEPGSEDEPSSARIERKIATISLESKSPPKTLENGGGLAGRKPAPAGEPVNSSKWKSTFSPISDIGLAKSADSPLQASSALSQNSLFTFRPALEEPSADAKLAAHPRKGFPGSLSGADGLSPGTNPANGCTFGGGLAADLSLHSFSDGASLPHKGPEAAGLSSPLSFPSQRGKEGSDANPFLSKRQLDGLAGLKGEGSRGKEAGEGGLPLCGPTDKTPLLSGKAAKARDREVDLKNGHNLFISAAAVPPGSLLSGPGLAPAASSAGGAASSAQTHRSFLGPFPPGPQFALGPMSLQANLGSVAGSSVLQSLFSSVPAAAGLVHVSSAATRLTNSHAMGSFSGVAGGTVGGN
pIC50: −log10 of the molar value.
REPORTED_PROPERTY: pIC50

Respond only with pIC50 recorded for `CCc1c(N(CC)C2CCOCC2)cc2oc(CN3CCCCC3)cc2c1C(=O)NCc1c(C)cc(C)[nH]c1=O`
< 4.00

* * *

- TEST_SYSTEM: DNMT3b (Homo sapiens, UniProt Q9UBC3)
REPORTED_PROPERTY: IC50

Respond only with IC50 recorded for CCc1c(N(CC)C2CCOCC2)cc2oc(CN3CCCCC3)cc2c1C(=O)NCc1c(C)cc(C)[nH]c1=O [SHR2554]
> 100 µM
